From: the supplement of paper PMC8671470

System: HL-60
Test: cell viability (% survival relative to DMSO control); higher = less cytotoxic
Conditions: 0.01 µM; 72 h; co-treatment: GSK2194069 100 nM
Metric name: cell viability (%)
Give the quantity in %, number only.

For this molecule ( NS(=O)(=O)c1ccc([N+](=O)[O-])cc1 [4-Nitrobenzenesulfonamide] ), measured cell viability is 96.8

For this molecule ( O=C(O)CCCCC(CCSCc1ccccc1)SCc1ccccc1 (centres undefined) ), measured cell viability is 101

For this molecule ( Cn1cc(-c2ccncc2)c(-c2ccc(OCc3ccc4ccccc4n3)cc2)n1 ), measured cell viability is 101

For this molecule ( O=C(O)c1cc(Cl)cc(Cl)c1O ), measured cell viability is 97
